Where a name gives a salt, the structure may show the parent alone.
# melting point listing for each entry below

>  <compound>
O=C(c1cc2cnc(NC3CCOCC3)nc2s1)c1ccccc1F

>  <melting point>
195.2 to 195.5 °C

$$$$
>  <compound>
CS(=O)(=O)N1CCC(Nc2ncc3cc(C(O)c4ccccc4)sc3n2)CC1.Cl (centres unmarked)

>  <melting point>
152.2 to 162.1 °C

$$$$
>  <compound>
Fc1ccccc1Cc1cc2cnc(NC3CCOCC3)nc2s1 (as salt: hydrochloride)

>  <melting point>
217 to 219 °C

$$$$
>  <compound>
Cl.O=C(c1ccccc1)c1cc2cnc(NC3CCOCC3)nc2s1

>  <melting point>
219.5 to 220.5 °C

$$$$
>  <compound>
O=C(c1ccccc1)c1cc2cnc(N[C@H]3CC[C@H](O)CC3)nc2s1

>  <melting point>
102.6 to 103.8 °C

$$$$

* * *

Recorded pIC50, one value per entry.
# measured on: p38 MAP kinase (UniProt Q16539)
# Construct: fused on or other part: A His tag is implied by purification on a nickel column
# method summary: Inhibition of p-38 (MAP) kinase in vitro assay (transfer of γ-33P from ATP to Myelin Basic Protein)
# conditions: phosphorylated recombinant p38 MAP kinase, MBP substrate, γ-33P-ATP, 30° C.
pIC50: −log10 of the molar value.

>  <compound>
c1ccc(Cc2cc3cnc(NC4CCCC4)nc3o2)cc1

>  <pIC50>
6.13

$$$$
>  <compound>
Cl.O=C(c1ccccc1)c1cc2cnc(NC3CCOCC3)nc2s1

>  <pIC50>
6.66

$$$$
>  <compound>
Fc1ccc(Sc2cc3cnc(NC4CCOCC4)nc3s2)c(F)c1

>  <pIC50>
6.65

$$$$
>  <compound>
Cn1c(Cc2ccccc2)cc2cnc(NC3CCCC3)nc21

>  <pIC50>
6.87

$$$$
>  <compound>
CS(=O)(=O)N1CCC(Nc2ncc3cc(C(O)c4ccccc4)sc3n2)CC1.Cl (stereo not drawn)

>  <pIC50>
6.89

$$$$
>  <compound>
O=C(c1ccccc1)c1cc2cnc(N[C@H]3CC[C@H](O)CC3)nc2s1

>  <pIC50>
6.98

$$$$
